Ref: patent US20150290200A1

targetEntity: ITK kinase domain (Homo sapiens)
Construct: N-terminally His-tagged ITK kinase domain (amino acids 352-617); His (N); made in house
assayExplanation: In vitro kinase assay (HITHUNTER enzyme fragment complementation), ITK
Assay type: biochemical
conditionLabel: Table 8; wild type ITK kinase domain; read-out: IC50 wild-type ITK
Reported IC50 is given for each of the following compounds.
# output: bare number, implied unit nM

Request: Lab note: need IC50 for O=C(CCN1CCOCC1)c1ccc(F)cc1 [drawing 258] on ITK kinase domain (Homo sapiens), anyone have it?
Response: 49.6

Request: // map NC(=O)c1ccc2cc(C(=O)CCN3CCOCC3)ccc2c1 [drawing 259] to recorded IC50 (system: ITK kinase domain (Homo sapiens))
Response: 11.1

Request: Hi! What's the reported IC50 for CN(C)C1CCN(CCC(=O)c2ccc3ccccc3c2)C1 (stereo not drawn) [drawing 257] on ITK kinase domain (Homo sapiens)?
Response: 11

====

targetEntity: BTK kinase domain (Homo sapiens)
Construct: The kinase domains of BTK, LCK and ERK were expressed as recombinant purified proteins; made in house
assayExplanation: In vitro kinase assay (HITHUNTER), BTK
Type: biochemical
conditionLabel: Table 5
pIC50: −log10 of the molar value.
Tag: Y if measured pIC50 is not below 7, N if it is.

Example results:
compound | classAssignment
O=C(CCN1CCC(CNC(=O)C(F)(F)F)CC1)c1ccc2ccccc2c1 | N
CN(C)C(=O)N1CCC(CNCCC(=O)c2ccc3ccccc3c2)CC1 | N
CN(C)C(=O)N1CCN(CCC(=O)c2ccc3ccccc3c2)CC1 | N
O=C(CCN1CCOCC1)c1ccc2ccccc2c1 [drawing 200] | Y
O=C(CCN1CCC(C(=O)c2ccncc2)CC1)c1ccc2ccccc2c1 | N
O=C(CCN1CCCC1)c1ccc2ccccc2c1 [drawing 201] | N

Request: Identify whether the reported pIC50 of the following compound is 7 or greater: O=C(CCNCC1CCN(C(=O)c2ccncc2)CC1)c1ccc2ccccc2c1
Response: Y

Request: Determine whether measured pIC50 meets or exceeds 7 for O=C(CCN1CCN(C(=O)c2ccncc2)CC1)c1ccc2ccccc2c1
Response: Y

Request: Is it the case that CC(C)(C)C(=O)N1CCN(CCC(=O)c2ccc3ccccc3c2)CC1 has pIC50 reaching or exceeding 7?
Response: N

Request: Would you say CN(C)C1CCN(CCC(=O)c2ccc3ccccc3c2)C1 (stereo not shown) [drawing 214] shows pIC50 at minimum 7?
Response: Y

Request: Could you verify whether the entry O=C(CCN1CCN(C(=O)N2CCOCC2)CC1)c1ccc2ccccc2c1 shows pIC50 of no less than 7?
Response: N

Request: Identify whether the reported pIC50 of the following compound is 7 or greater: O=C(CCN1CCCCNC1)c1ccc2ccccc2c1
Response: Y

Request: # bool: pIC50 of O=C(CCN1CCNCC1)c1ccc2ccccc2c1 >= 7
Response: N

====

targetEntity: BTK kinase domain (Homo sapiens, UniProt Q06187)
Construct: The kinase domains of BTK, LCK and ERK were expressed as recombinant purified proteins; made in house
Sequence (Q06187 402-655 limits assumed): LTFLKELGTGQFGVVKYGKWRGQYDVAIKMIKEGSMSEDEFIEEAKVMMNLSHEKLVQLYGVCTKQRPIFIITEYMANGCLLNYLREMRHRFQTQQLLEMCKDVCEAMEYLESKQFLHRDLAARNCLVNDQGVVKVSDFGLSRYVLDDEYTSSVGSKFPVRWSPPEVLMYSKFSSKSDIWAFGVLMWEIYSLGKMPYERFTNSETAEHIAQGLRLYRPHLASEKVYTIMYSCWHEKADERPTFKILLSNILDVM
assayExplanation: In vitro kinase assay (HITHUNTER), BTK
Format: biochemical
conditionLabel: Table 3, naphthyl analog
readoutName: pIC50
The quantity pIC50 is defined as the negative base-10 logarithm of the molar concentration.

The cases that follow already have their pIC50 on record.
compound | pIC50
CC(C)N(CCC(=O)c1ccc2ccccc2c1)C(C)C [drawing 179] | 9.14
CN(C)C1CCN(CCC(=O)c2ccc3ccccc3c2)C1 (centres unmarked) [drawing 171] | 8.67

Request: Under BTK kinase domain (Homo sapiens, UniProt Q06187): pIC50 value of COc1cc2c(cc1OC)CN(CCC(=O)c1ccc3ccccc3c1)CC2 [drawing 169] ?
Response: 7.89

Request: Enter reported pIC50 observed with BTK kinase domain (Homo sapiens, UniProt Q06187) for CN(C)C1CCN(CCC(=O)c2ccc3ccccc3c2)CC1 [drawing 177]
Response: 8.18

Request: Requested read-out pIC50, target or system BTK kinase domain (Homo sapiens, UniProt Q06187), entry O=C(CCN1CCOCC1)c1ccc2ccccc2c1 [drawing 167]
Response: 7.40

====

Collected IC50 values appear next to each entry.
targetEntity: LCK kinase domain (Homo sapiens, UniProt P06239)
Construct: The kinase domains of BTK, LCK and ERK were expressed as recombinant purified proteins
Sequence (P06239 245-498 limits assumed, species assumed): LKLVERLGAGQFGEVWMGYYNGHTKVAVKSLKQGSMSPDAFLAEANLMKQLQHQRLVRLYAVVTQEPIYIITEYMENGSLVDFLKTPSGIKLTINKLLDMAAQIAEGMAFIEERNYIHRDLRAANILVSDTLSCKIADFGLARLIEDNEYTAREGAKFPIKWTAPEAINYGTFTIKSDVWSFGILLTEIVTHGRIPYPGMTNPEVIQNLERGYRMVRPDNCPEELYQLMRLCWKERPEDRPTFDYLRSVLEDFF
assayExplanation: In vitro kinase assay (HITHUNTER), LCK
conditionLabel: Table 2
Field format: number, assumed µM, no unit text.

Recorded IC50, per entry:
molecule | IC50 [µM]
CC(=O)Nc1cccc(C(=O)CCN2CCOCC2)c1 | 18.4
O=C(CCN1CCOCC1)c1cccc2ccccc12 | 23.2
Cc1cccc(C(=O)CCN2CCOCC2)c1 | 24.4
COc1cc(OC)cc(C(=O)CCN2CCOCC2)c1 | 12.6

Attention now turns to another entry.
Request: Which IC50 is listed for CS(=O)(=O)c1ccc(C(=O)CCN2CCOCC2)cc1 ?
Response: 23.9

====

targetEntity: ITK kinase domain (Homo sapiens)
Construct: N-terminally His-tagged ITK kinase domain (amino acids 352-617); His (N); made in house
assayExplanation: In vitro kinase assay (HITHUNTER enzyme fragment complementation), ITK
Assay type: biochemical
conditionLabel: Table 4; read-out: IC50 ITK
readoutName: log10 of IC50 (log10 of the value in nM)
Heads up, the numbers here are log10 of IC50 in nM units.

Recorded results for 5 molecules are shown here.
molecule | readoutName | readoutNumber
O=C(CCN1CCOCC1)c1n[nH]c2ccccc12 | log10 of IC50 | 1.69
O=C(CCN1CCC(Cc2ccccc2)CC1)c1ccc2ccccc2c1 [drawing 182] | log10 of IC50 | 1.97
O=C(CCN1CCOCC1)c1csc2ccccc12 | log10 of IC50 | 2.13
O=C(CCN1CCOCC1)c1ccc2occc2c1 [drawing 192] | log10 of IC50 | 1.88
O=C(CCN1CCC(c2ccccc2)C1)c1ccc2ccccc2c1 (centres unmarked) | log10 of IC50 | 1.36

Request: Sample O=CNc1ccc2cc(C(=O)CCN3CCOCC3)ccc2c1 — what was its log10 of IC50?
Response: 1.62

Request: Look up log10 of IC50 for this molecule: O=C(O)c1ccc2cc(C(=O)CCN3CCOCC3)ccc2c1
Response: 3.52

Request: Reported log10 of IC50 for O=C(CCN1CCOCC1)c1c[nH]c2ccccc12 : what is it?
Response: 2.25

====

Each item that follows carries a reported pIC50.
targetEntity: C442A-ITK kinase domain (Homo sapiens, UniProt Q08881, C442A)
Construct: we created a point mutant of the ITK kinase domain
Sequence (Q08881 363-615 C442A limits assumed): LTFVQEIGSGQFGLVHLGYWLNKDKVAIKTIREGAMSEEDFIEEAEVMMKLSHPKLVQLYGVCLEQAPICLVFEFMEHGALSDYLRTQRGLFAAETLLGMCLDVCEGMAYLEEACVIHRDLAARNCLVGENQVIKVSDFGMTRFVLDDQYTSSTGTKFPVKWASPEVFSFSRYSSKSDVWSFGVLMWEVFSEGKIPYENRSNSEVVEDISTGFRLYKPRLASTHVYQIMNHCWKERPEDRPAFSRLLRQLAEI
assayExplanation: In vitro kinase assay, C442A point mutant of ITK kinase domain
conditionLabel: Table 8
pIC50: −log10 of the molar value.

Here is how some compounds turned out for pIC50.
compound | readoutName | result
NC(=O)c1ccc2cc(C(=O)CCN3CCOCC3)ccc2c1 [drawing 259] | pIC50 | < 5.00
CN(C)C1CCN(CCC(=O)c2ccc3ccccc3c2)C1 (stereo not drawn) [drawing 257] | pIC50 | < 5.00

Now consider the entry below.
Request: For the compound O=C(CCN1CCOCC1)c1ccc(F)cc1 [drawing 258] , what pIC50 is on record?
Response: < 5.00

====

Reported pIC50 values for the following molecules.
targetEntity: BTK kinase domain (Homo sapiens)
Construct: The kinase domains of BTK, LCK and ERK were expressed as recombinant purified proteins; made in house
assayExplanation: In vitro kinase assay (HITHUNTER), BTK
Assay type: biochemical
conditionLabel: Table 2
// returns pIC50 (minus log10 of molar concentration), number only

Known pIC50 results, listed for orientation:
molecule | pIC50
O=C(CCN1CCOCC1)c1cccc2ccccc12 | 6.40
Cc1ccc(C(=O)CCN2CCOCC2)cc1C | 5.83
O=C(CCN1CCOCC1)c1ccccc1Br | 6.13
O=C(CCN1CCOCC1)c1ccc(F)cc1F | 6.06
O=C(CCN1CCOCC1)c1ccc(F)cc1C(F)(F)F | 5.91
COc1ccc(C(=O)CCN2CCOCC2)cc1OC [drawing 124] | 5.74

Proceed to the following item.
Request: Looking for the measured pIC50 of Cc1ccccc1C(=O)CCN1CCOCC1 , can you help?
Response: 5.64
